Assay: inhibitors of HIV-1 Env-driven cell-cell fusion, primary screen, HeLa-JRFL effector, CEM21 target cells, luciferase (AID 651610);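 note: 0% = plate neutral controls and 100% = maraviroc near 300 nM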
Settings: at 16.7 µM unless noted
Out of some 360,000 compounds screened, about 3,900 (1.1%) were called active.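 Rule for the calls: active = mean replicate inhibition score of at least 50 and every replicate individually at or above 50; inconclusive = only one of the two criteria met; inactive = mean below 50 and not all replicates reaching 50.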 The entries come from a sample that favours actives as a whole.
I would appreciate it if you answered using one of these outcomes: active, inactive

Reference set (4 entries):
{"Molecule smiles": "O=C(Nc1ccc(C(F)(F)F)cc1)N[C@@H]1CC[C@@H](CCNC(=O)c2ccccc2F)O[C@H]1CO", "Classification": "inactive"}
{"Molecule smiles": "CCN(CC)CCN(C(=O)c1ccc(N2C(=O)CCC2=O)cc1)c1nc2cc3c(cc2s1)OCO3", "Classification": "inactive"}
{"Molecule smiles": "CN(C)CCN(C(=O)C1=COCCO1)c1nc2ccc(Cl)cc2s1", "Classification": "inactive"}
{"Molecule smiles": "O=C1C=C(c2ccnc3cc(Cl)ccc23)C[C@@H](c2ccc3c(c2)OCO3)C1", "Classification": "active"}

Which outcome was assigned to "O=C(Cc1ccccn1)NCC[C@H]1CC[C@@H](NS(=O)(=O)c2ccc(F)cc2)[C@H](CO)O1" in this test?
inactive

Which outcome was assigned to "COc1ccc(-c2nnc(SCC(=O)c3ccc4c(c3)OCCO4)o2)cc1" in this test?
inactive

Which outcome was assigned to "C[C@H]1CN([C@@H](C)CO)C(=O)Cc2cc(NC(=O)C3CC3)ccc2O[C@@H]1CN(C)C(=O)NC1CCCCC1" in this test?
inactive

Which outcome was assigned to "COc1ccc2cc(C3=CC(=O)C[C@H](c4ccc5c(c4)OCO5)C3)ccc2c1" in this test?
inactive

Which outcome was assigned to "O=C1C=C(c2cc(C(F)(F)F)cc(C(F)(F)F)c2)C[C@@H](c2ccc3c(c2)OCO3)C1" in this test?
inactive

* * *

Test: inhibitors of HIV-1 Env-driven cell-cell fusion, primary screen, HeLa-JRFL effector, CEM21 target cells, luciferase (AID 651610);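 note: 0% = plate neutral controls and 100% = maraviroc near 300 nM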
Details: hits give high values; at 16.7 µM unless noted
The whole screen tested about 360,000 compounds, of which about 3,900 (1.1%) were called active. The entries come from a sample that favours actives as a whole.
Each entry below carries its reported inhibition.

Some solved entries appear below for comparison.
{"Molecule smiles": "C[C@H](CO)N1C[C@H](C)[C@H](CN(C)C(=O)Nc2ccc(C(F)(F)F)cc2)Oc2ccc(NS(=O)(=O)c3cn(C)cn3)cc2CC1=O", "Result": "10.7% (inactive)"}
{"Molecule smiles": "CCCNC(=O)N(C)C[C@H]1Oc2ncc(-c3ccc(F)cc3)cc2C(=O)N([C@H](C)CO)C[C@H]1C", "Result": "-0.986% (inactive)"}
{"Molecule smiles": "CCOC(=O)N1CCN(Cc2nc3cc(NC(C)=O)ccc3n2C)CC1", "Result": "9.8% [at 12.3 µM] (inactive)"}

Give inhibition for "CCC(=O)N(C)C[C@H]1Oc2ncc(-c3ccccc3OC)cc2C(=O)N([C@H](C)CO)C[C@H]1C"
-7.79% (inactive)

* * *

Test: inhibitors of HIV-1 Env-driven cell-cell fusion, primary screen, HeLa-JRFL effector, CEM21 target cells, luciferase (AID 651610);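 note: 0% = plate neutral controls and 100% = maraviroc near 300 nM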
Conditions: at 16.7 µM unless noted
The whole screen tested about 360,000 compounds, of which about 3,900 (1.1%) were called active.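 How the source made its calls: active means mean replicate inhibition score of at least 50 and every replicate individually at or above 50; inconclusive means only one of the two criteria met; inactive means mean below 50 and not all replicates reaching 50.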 For the sample, actives were picked, then their nearest neighbours and some compounds at random.
I would appreciate it if you answered using one of these outcomes: active, inactive

Which outcome was assigned to CCC(C)c1ccccc1N1CC(C(=O)N2CCN(S(=O)(=O)c3ccc(F)cc3)CC2)CC1=O (configuration not stated) in this test?
inactive

Which outcome was assigned to "O=C(C[C@@H]1CC[C@@H]2[C@H](COC[C@H](O)CN2C(=O)c2cccnc2)O1)NC1Cc2ccccc2C1" in this test?
inactive

Which outcome was assigned to "COC(=O)C[C@H]1CC[C@H](NC(=O)c2ccccc2)[C@@H](CO)O1" in this test?
inactive

Which outcome was assigned to "CS(=O)(=O)Nc1ccc2c(c1)[C@@H]1C[C@H](CC(=O)NCc3cc(F)ccc3F)O[C@@H](CO)[C@@H]1O2" in this test?
inactive

Which outcome was assigned to "C[C@H]1CN([C@@H](C)CO)C(=O)c2cccc(NS(=O)(=O)c3ccc(Cl)cc3)c2O[C@H]1CN(C)S(=O)(=O)c1ccc(Cl)cc1" in this test?
inactive
